Test system: Zika virus NS2B-NS3 protease (unlinked)
Method Description: Optimization of GU AMC qHTS for Zika virus inhibitors: Unlinked NS2B-NS3 protease assay (AID 1347151); note: nearly all actives have a fitted effect of over 80% in size
Recorded Conditions: recombinant ZIKV NS2B-NS3 protease, fluorogenic AMC substrate; series mostly up to 52.5 µM
Inconclusive results are not listed. Active and inactive are the calls of the source. Calls come from the whole dose curve; as a rule, active = well fitted inhibition curve with a large enough effect; inconclusive = small, poorly fitted or top-dose-only effect; inactive = no such curve, though single readings can be large or run the other way.
Reported Endpoint: outcome

Compound: CC1O[C@@H](O[C@@H]2C(O)C[C@H](O[C@@H]3C(O)C[C@@H](OC4CC[C@@]5(C)C6CC[C@]7(C)C(C8=CC(=O)OC8)CC[C@@]7(O)C6CC[C@@H]5C4)OC3C)OC2C)CC(O)[C@H]1O (some centres undefined)
Reported Endpoint: outcome
Recorded Measurement: inactive
--
Compound: C[C@H]1O[C@@H](O[C@H]2[C@@H](O)C[C@H](O[C@H]3[C@@H](O)C[C@H](O[C@H]4CC[C@]5(C)C6CC[C@]7(C)[C@@H](C8=CC(=O)OC8)CC[C@]7(O)C6CC[C@@H]5C4)O[C@@H]3C)O[C@@H]2C)C[C@H](O)[C@@H]1O (some centres undefined)
Reported Endpoint: outcome
Recorded Measurement: inactive
--
Compound: Cc1ccc2c(c1)[C@]13CCCC[C@@H]1[C@H](C2)N(C)CC3
Reported Endpoint: outcome
Recorded Measurement: inactive
--
Compound: COC1C(O)C(C)O[C@@H](OC2CC[C@@]3(C)C4CC[C@]5(C)C(C6=CC(=O)OC6)CC[C@@]5(O)C4CC[C@@H]3C2)C1O (some centres undefined)
Reported Endpoint: outcome
Recorded Measurement: inactive
